# System: CAMK1B
# CONDITION_INFO: concentration: 1 μM, replicates: in singlicate; n = 1;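 note: KINOMEscan kinase panel screen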
%Inh below 30% gives Not satisfied; %Inh at or above it gives Satisfied.

CS(=O)(=O)c1cccc(CNc2nc(Nc3ccc4c(c3)CCC(=O)N4)ncc2C(F)(F)F)c1    Not satisfied
Fc1cc(Cl)ccc1Nc1ccnc2cc(-c3ccc(CN4CCOCC4)o3)ccc12    Not satisfied
Cn1cc(-c2ccc3c(c2)CCN3C(=O)Cc2cc(F)cc(C(F)(F)F)c2)c2c(N)ncnc21    Satisfied
Cl.Cl.NC(CNC(=O)c1cc(Br)c(-c2ccnc3[nH]ccc23)s1)c1ccccc1 (stereo not drawn)    Satisfied
O=C(Nc1c(F)cccc1F)c1cc(C(=O)c2ccccc2F)c[nH]1    Satisfied
COc1cc(Nc2ccnc3cc(-c4ccncc4)ccc23)cc(OC)c1OC.Cl    Not satisfied
Cc1ccc(NC(=O)c2ccnc(N3CCCCC3)c2)cc1-c1ccc(C(=O)NCC2CC2)cc1    Not satisfied
CN(C)CCNS(=O)(=O)c1ccc(-c2ccnc3[nH]ccc23)cc1    Not satisfied
Cn1cc(-c2cnc(N)c3c(-c4ccc5c(c4)CCN5C(=O)Cc4ccccc4)csc23)cn1    Not satisfied
Cc1ccc(NC(=O)c2cccc(N3CCCCC3)c2)cc1-c1ccc(C(=O)NCC2CC2)cc1    Not satisfied
CN(c1ccc(NC(=O)Nc2cccc(Cl)c2)cc1)c1ccnc(N)n1.Cl    Not satisfied
CN(c1ccc(F)c(NC(=O)c2cccc(OC(C)(C)C#N)c2Cl)c1)c1ccc2nc(NC(=O)C3CC3)sc2n1    Not satisfied
Cc1ccccc1CC(=O)N1CCc2cc(-c3cn(C)c4ncnc(N)c34)ccc21    Not satisfied
COC(=O)Nc1nc2ccc(Oc3ccc(NC(=O)Nc4cc(C(F)(F)F)ccc4F)cc3)cc2[nH]1.Cl    Satisfied
COc1cccc(CC(=O)N2CCc3cc(-c4cn(C)c5ncnc(N)c45)ccc32)c1    Satisfied
Cc1cc(-c2ccnc(Nc3cccc(C#N)c3)n2)cc(C)c1O    Not satisfied
NCCC(NC(=O)c1cc(Br)c(-c2ccnc3[nH]ccc23)s1)c1ccccc1.O=C(O)C(F)(F)F.O=C(O)C(F)(F)F (stereo not drawn)    Satisfied
CN(C)CCOc1ccc(-c2cc(-c3ccc(Cl)c(O)c3)c(-c3ccncc3)[nH]2)cc1.Cl.Cl    Satisfied
COc1ccc(C)c(Nc2ccnc(Nc3ccc(-c4cnc[nH]4)cc3)n2)c1.Cl    Not satisfied
COc1cc(Nc2nccc(N3CCC(NC(=O)Nc4ccc5c(c4)OCO5)C3)n2)cc(OC)c1OC (stereo not drawn)    Satisfied
CCNc1nccc(-c2c(-c3ccc(F)cc3)ncn2C2CCN(C)CC2)n1    Not satisfied
COc1cc(Nc2nccc(N3CCC(NS(=O)(=O)c4ccc(NC(C)=O)cc4)CC3)n2)cc(OC)c1OC    Satisfied
Cl.N#CCc1ccc(Nc2nccc(Nc3ccc(Oc4ccccc4)cc3)n2)cc1    Satisfied
Cc1ccc(NC(=O)c2ccc(Cl)c(Cl)c2)cc1-c1ccc(C(=O)Nc2ccncc2)cc1    Not satisfied
Cc1cccc(Nc2nc(NCCN)ncc2C(N)=O)c1    Satisfied
O=C(Nc1n[nH]c2nc(-c3cccc(O)c3)ccc12)C1CC1    Not satisfied
CN(c1ccc2c(c1)nc(NCc1ccccc1)n2C)c1ccnc(Nc2ccc(CS(C)(=O)=O)cc2)n1.Cl    Satisfied
CN(C)c1ncnc2nc[nH]c12    Not satisfied
CC(C)(C)c1ccc(C(=O)Nc2cn3cc(-n4ccnc4)ccc3n2)cc1    Not satisfied
CN1CCN(Cc2ccc(NC(=O)Nc3ccc(N(C)c4ccnc(Nc5ccc(CS(C)(=O)=O)cc5)n4)cc3)cc2)CC1.Cl    Satisfied
COc1cccc(NC(=O)NCCNc2ccnc(Nc3ccc(F)cc3)n2)c1    Not satisfied
O=C(O)C(F)(F)F.O=c1[nH]ccc2nc(N[C@@H]3CCNC3)nc(Nc3cc(Cl)cc(Cl)c3)c12    Satisfied
CC(C)NCC(Cc1ccccc1)NC(=O)c1cc(Br)c(-c2ccnc3[nH]ccc23)s1.Cl.Cl (stereo not drawn)    Not satisfied

====

# Tested on: PAK4
# CONDITION_INFO: concentration: 1 μM, replicates: in singlicate; n = 1
REPORTED_ENDPOINT: %Inh (%)

c1ccc(Oc2ccc(Nc3ccnc4cc(-c5ccc(CN6CCCCC6)o5)ccc34)cc2)nc1    0
CN(C)CCNS(=O)(=O)c1ccc(-c2ccnc3[nH]ccc23)cc1    56
Nc1ncc(-c2ccc3nccc(-c4ccncc4)c3c2)cc1S(=O)(=O)N1CCCCC1    0
O=C1NC(=O)C(c2ccccc2Cl)=C1Nc1cccc(Cl)c1    0
Nc1ncnc2scc(-c3ccc(NC(=O)Cc4cc(F)ccc4F)cc3)c12.O=C(O)C(F)(F)F    0
COC(=O)Nc1nc2cc(Oc3ccc(NC(=O)Nc4cccc(SC)c4)cc3)ccc2[nH]1.Cl    0
COc1cc(Nc2ccnc3cc(-c4ccncc4)ccc23)cc(OC)c1OC.Cl    0
Cc1ccccc1CC(=O)N1CCc2cc(-c3cn(C)c4ncnc(N)c34)ccc21    0
Cc1ccc(O)cc1Nc1ccnc2cc(-c3ccc(CN4CCCCC4)o3)ccc12    13
Cc1ccc(C)c(NC(=O)Nc2ccc(C)c(-c3ccc(C(=O)Nc4ccncc4)cc3)c2)c1    0
Cc1ccc(Nc2ccnc(Nc3ccc(C)c(F)c3)n2)cc1O.Cl    0
CNc1nccc(-c2ccc3c(N)n[nH]c3c2)n1    4
Nc1cccc(-c2ccc3c(N)n[nH]c3c2)c1    0
Cc1ccc(O)cc1Nc1ccnc2ccc(C(C)(C)C)cc12    17
CN(C)CCOc1ccc(-c2cc(-c3ccc(Cl)c(O)c3)c(-c3ccncc3)[nH]2)cc1.Cl.Cl    0

====

# System: MYO3A
# CONDITION_INFO: concentration: 1 μM, replicates: in singlicate; n = 1
REPORTED_ENDPOINT: %Inh

O=C(O)C(F)(F)F.O=c1[nH]ccc2nc(N[C@@H]3CCNC3)nc(Nc3ccc4c(c3)S(=O)(=O)CC4)c12    74%
O=C(O)C(F)(F)F.O=c1[nH]ccc2nc(N[C@@H]3CCNC3)nc(Nc3cc(Cl)cc(Cl)c3)c12    59%
NCCC(NC(=O)c1cc(Br)c(-c2ccnc3[nH]ccc23)s1)c1ccccc1.O=C(O)C(F)(F)F.O=C(O)C(F)(F)F (stereo not shown)    0%
CN(c1ccc2c(c1)nc(NCc1ccccc1)n2C)c1ccnc(Nc2ccc(CS(C)(=O)=O)cc2)n1.Cl    5%

====

%Inh by entry:
# System: NDR1
# Construct: gene STK38
# CONDITION_INFO: concentration: 1 μM, replicates: in singlicate; n = 1
REPORTED_ENDPOINT: %Inh (%)

Cl.Cl.NC(CNC(=O)c1cc(Br)c(-c2ccnc3[nH]ccc23)s1)c1ccccc1 (stereo not shown) [GSK1322949]    96.4
Cc1cccc(Nc2nc(N[C@H]3CCCC[C@H]3N)ncc2C(N)=O)c1.Cl [GSK986310]    27
COc1cccc2c(-c3ccncc3)c(-c3ccc(F)cc3)nn12 [GW468513]    8
O=C(O)C(F)(F)F.O=c1[nH]ccc2nc(N[C@@H]3CCNC3)nc(Nc3ccc4c(c3)S(=O)(=O)CC4)c12 [GSK2181306]    89
Cl.O=C(Nc1ccc(Oc2ccc3[nH]c(NC(=O)c4ccco4)nc3c2)cc1)Nc1cc(C(F)(F)F)ccc1F [GW683134]    0
CN(C)CCNS(=O)(=O)c1ccc(-c2ccnc3[nH]ccc23)cc1 [GSK977620]    29
COc1cc(Nc2nccc(N3CCC(NS(=O)(=O)c4ccc(NC(C)=O)cc4)CC3)n2)cc(OC)c1OC [GSK1379825]    0
COc1cccc(NC(=O)NCCNc2ccnc(Nc3ccc(F)cc3)n2)c1 [GSK1379879]    18
COC(=O)Nc1nc2ccc(Oc3ccc(CC(=O)Nc4cc(C(F)(F)F)ccc4F)cc3)cc2[nH]1 [GW680903]    0
Cn1cc(-c2ccc3c(c2)CCN3C(=O)Cc2cc(F)cc(F)c2F)c2c(N)ncnc21 [GSK2634140]    0
Cc1nn2c(=O)cc(N3CCO[C@H](C)C3)nc2n1Cc1cccc(Cl)c1Cl [GSK2373693]    0
Fc1cc(Cl)ccc1Nc1ccnc2cc(-c3ccc(CN4CCSCC4)o3)ccc12 [GW560106]    12
Cl.Cl.NCC(NC(=O)c1cc(-c2cccnc2)c(-c2ccnc3[nH]ccc23)s1)c1ccccc1 (stereo not shown) [GSK1323434]    67
Nc1ncc(-c2cn[nH]c2)c2scc(-c3ccc4c(c3)CCN4C(=O)Cc3ccccc3)c12 [GSK2593067]    0
Cc1ccc(O)cc1Nc1ccnc2ccc(C(C)(C)C)cc12 [GW856805]    18
Cc1ccc(C)c(NC(=O)Nc2ccc(C)c(-c3ccc(C(=O)Nc4ccncc4)cc3)c2)c1 [GSK1398473]    29
